Documented viability, T/C across a set of compounds
test system: 967376-340-R-J2-PDC multicell spheroid viability; experiment: Anticancer human tumor 967376-340-R-J2-PDC patient-derived colon adenocarcinoma cell line growth inhibition [PI3K]; settings: second compound 0.00316 µM; first compound 0.316 µM; hits give low values;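 further: luminescence used as surrogate of cell viability; spheroids exposed to agents for 7 days before read-out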

{"compound": "CC(Cn1ccc(-c2ccc(C#N)c(Cl)c2)n1)NC(=O)c1cc(C(C)O)[nH]n1 (configuration not stated) + COc1c(OCCCN2CCOCC2)ccc2c3n(c(=NC(=O)c4cnc(N)nc4)nc12)CCN3", "viability, T/C, %": 79.6}
{"compound": "Cn1nccc1Nc1nccc(-c2ccn(C(CO)c3ccc(Cl)c(F)c3)c(=O)c2)n1 (configuration not stated) + CC(Nc1ccc2c(c1)OCCn1cc(N3C(=O)OCC3C(F)F)nc1-2)C(N)=O", "viability, T/C, %": 105}
{"compound": "Cn1ncc(Cl)c1-c1cc(C(=O)NC(CN)Cc2cccc(F)c2)sc1Cl (configuration not stated) + COc1c(OCCCN2CCOCC2)ccc2c3n(c(=NC(=O)c4cnc(N)nc4)nc12)CCN3", "viability, T/C, %": 73.8}
{"compound": "C[C@@H](NC(=O)c1ncnc(N)c1Cl)c1ncc(C(=O)Nc2cc(C(F)(F)F)c(Cl)cn2)s1 + COc1c(OCCCN2CCOCC2)ccc2c3n(c(=NC(=O)c4cnc(N)nc4)nc12)CCN3", "viability, T/C, %": 80.6}
{"compound": "CC(Cn1ccc(-c2ccc(C#N)c(Cl)c2)n1)NC(=O)c1cc(C(C)O)[nH]n1 (configuration not stated) + CC(Nc1ccc2c(c1)OCCn1cc(N3C(=O)OCC3C(F)F)nc1-2)C(N)=O", "viability, T/C, %": 126}
{"compound": "CCCS(=O)(=O)Nc1ccc(F)c(C(=O)c2c[nH]c3ncc(-c4ccc(Cl)cc4)cc23)c1F + COc1c(OCCCN2CCOCC2)ccc2c3n(c(=NC(=O)c4cnc(N)nc4)nc12)CCN3", "viability, T/C, %": 82.8}
{"compound": "CC1(C)CCC(CN2CCN(c3ccc(C(=O)NS(=O)(=O)c4ccc(NCC5CCOCC5)c([N+](=O)[O-])c4)c(Oc4cnc5[nH]ccc5c4)c3)CC2)=C(c2ccc(Cl)cc2)C1 + COc1c(OCCCN2CCOCC2)ccc2c3n(c(=NC(=O)c4cnc(N)nc4)nc12)CCN3", "viability, T/C, %": 94.8}
{"compound": "CCCS(=O)(=O)Nc1ccc(F)c(C(=O)c2c[nH]c3ncc(-c4ccc(Cl)cc4)cc23)c1F + CC(Nc1ccc2c(c1)OCCn1cc(N3C(=O)OCC3C(F)F)nc1-2)C(N)=O", "viability, T/C, %": 98.3}
{"compound": "C=CC(=O)N1CCN(c2nc(=O)n(-c3c(C)ccnc3C(C)C)c3nc(-c4c(O)cccc4F)c(F)cc23)C(C)C1 (configuration not stated) + COc1c(OCCCN2CCOCC2)ccc2c3n(c(=NC(=O)c4cnc(N)nc4)nc12)CCN3", "viability, T/C, %": 91.7}
{"compound": "CC1(C)CCC(CN2CCN(c3ccc(C(=O)NS(=O)(=O)c4ccc(NCC5CCOCC5)c([N+](=O)[O-])c4)c(Oc4cnc5[nH]ccc5c4)c3)CC2)=C(c2ccc(Cl)cc2)C1 + CC(Nc1ccc2c(c1)OCCn1cc(N3C(=O)OCC3C(F)F)nc1-2)C(N)=O", "viability, T/C, %": 97.2}
{"compound": "CCN1CCN(Cc2ccc(Nc3ncc(F)c(-c4cc(F)c5nc(C)n(C(C)C)c5c4)n3)nc2)CC1 + COc1c(OCCCN2CCOCC2)ccc2c3n(c(=NC(=O)c4cnc(N)nc4)nc12)CCN3", "viability, T/C, %": 79.7}
{"compound": "CC1(C)CCC(Nc2ncc(C(F)(F)F)c(-c3c[nH]c4c(P(C)(C)=O)c(C#N)ccc34)n2)CN1 (configuration not stated) + CC(Nc1ccc2c(c1)OCCn1cc(N3C(=O)OCC3C(F)F)nc1-2)C(N)=O", "viability, T/C, %": 68}
